- assay_system: Glycogen synthase kinase-3 beta (Homo sapiens, UniProt P49841)
- Sequence (P49841 whole entry): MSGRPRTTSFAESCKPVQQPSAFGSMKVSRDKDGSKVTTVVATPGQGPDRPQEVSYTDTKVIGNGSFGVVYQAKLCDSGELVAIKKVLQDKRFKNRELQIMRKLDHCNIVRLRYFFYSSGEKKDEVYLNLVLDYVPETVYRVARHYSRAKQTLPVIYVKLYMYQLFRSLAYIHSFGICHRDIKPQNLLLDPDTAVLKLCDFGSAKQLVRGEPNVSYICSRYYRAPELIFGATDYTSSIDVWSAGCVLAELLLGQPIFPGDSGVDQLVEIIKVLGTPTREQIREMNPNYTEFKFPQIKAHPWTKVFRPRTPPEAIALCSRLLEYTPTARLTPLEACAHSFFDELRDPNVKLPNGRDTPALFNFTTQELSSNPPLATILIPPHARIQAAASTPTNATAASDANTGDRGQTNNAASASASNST

- mol: "NC(=O)c1cnc(Nc2cccc(O)n2)cc1Nc1ccccc1Cl"
  IC50: "> 2500 nM"

====

- assay_system: JAK3/JAK1 (Homo sapiens, UniProt P23458+P52333)
- Sequence (P52333 whole entry): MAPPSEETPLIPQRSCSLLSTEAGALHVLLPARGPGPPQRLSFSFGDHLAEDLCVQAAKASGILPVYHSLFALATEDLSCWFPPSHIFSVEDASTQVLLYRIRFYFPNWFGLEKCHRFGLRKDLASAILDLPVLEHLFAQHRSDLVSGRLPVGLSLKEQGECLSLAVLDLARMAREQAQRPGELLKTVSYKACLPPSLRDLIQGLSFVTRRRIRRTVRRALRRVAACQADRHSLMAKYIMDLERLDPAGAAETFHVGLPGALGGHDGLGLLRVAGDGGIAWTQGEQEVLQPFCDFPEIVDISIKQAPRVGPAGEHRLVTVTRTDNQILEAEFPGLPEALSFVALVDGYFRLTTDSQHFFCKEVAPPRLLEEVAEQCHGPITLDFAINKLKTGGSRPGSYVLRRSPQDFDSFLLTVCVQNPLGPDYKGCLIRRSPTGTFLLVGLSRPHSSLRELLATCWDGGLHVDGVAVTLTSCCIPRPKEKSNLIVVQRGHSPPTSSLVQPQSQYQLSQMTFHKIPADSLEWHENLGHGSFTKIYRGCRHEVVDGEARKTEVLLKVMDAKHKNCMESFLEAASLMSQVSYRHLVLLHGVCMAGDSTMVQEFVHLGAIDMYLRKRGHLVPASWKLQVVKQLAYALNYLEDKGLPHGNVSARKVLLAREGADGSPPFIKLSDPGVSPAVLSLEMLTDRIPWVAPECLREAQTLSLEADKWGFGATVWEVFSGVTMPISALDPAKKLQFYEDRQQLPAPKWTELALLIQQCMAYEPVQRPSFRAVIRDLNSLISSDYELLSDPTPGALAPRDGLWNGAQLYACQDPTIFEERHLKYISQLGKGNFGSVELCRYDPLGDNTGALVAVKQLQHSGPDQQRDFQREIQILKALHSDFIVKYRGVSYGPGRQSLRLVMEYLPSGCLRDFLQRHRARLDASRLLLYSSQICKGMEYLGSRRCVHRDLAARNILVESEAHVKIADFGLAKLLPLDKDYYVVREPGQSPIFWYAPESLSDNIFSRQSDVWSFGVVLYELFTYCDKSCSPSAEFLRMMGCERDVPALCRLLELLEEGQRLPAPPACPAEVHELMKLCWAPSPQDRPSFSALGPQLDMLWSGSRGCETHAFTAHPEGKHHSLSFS
- Sequence (P23458 whole entry): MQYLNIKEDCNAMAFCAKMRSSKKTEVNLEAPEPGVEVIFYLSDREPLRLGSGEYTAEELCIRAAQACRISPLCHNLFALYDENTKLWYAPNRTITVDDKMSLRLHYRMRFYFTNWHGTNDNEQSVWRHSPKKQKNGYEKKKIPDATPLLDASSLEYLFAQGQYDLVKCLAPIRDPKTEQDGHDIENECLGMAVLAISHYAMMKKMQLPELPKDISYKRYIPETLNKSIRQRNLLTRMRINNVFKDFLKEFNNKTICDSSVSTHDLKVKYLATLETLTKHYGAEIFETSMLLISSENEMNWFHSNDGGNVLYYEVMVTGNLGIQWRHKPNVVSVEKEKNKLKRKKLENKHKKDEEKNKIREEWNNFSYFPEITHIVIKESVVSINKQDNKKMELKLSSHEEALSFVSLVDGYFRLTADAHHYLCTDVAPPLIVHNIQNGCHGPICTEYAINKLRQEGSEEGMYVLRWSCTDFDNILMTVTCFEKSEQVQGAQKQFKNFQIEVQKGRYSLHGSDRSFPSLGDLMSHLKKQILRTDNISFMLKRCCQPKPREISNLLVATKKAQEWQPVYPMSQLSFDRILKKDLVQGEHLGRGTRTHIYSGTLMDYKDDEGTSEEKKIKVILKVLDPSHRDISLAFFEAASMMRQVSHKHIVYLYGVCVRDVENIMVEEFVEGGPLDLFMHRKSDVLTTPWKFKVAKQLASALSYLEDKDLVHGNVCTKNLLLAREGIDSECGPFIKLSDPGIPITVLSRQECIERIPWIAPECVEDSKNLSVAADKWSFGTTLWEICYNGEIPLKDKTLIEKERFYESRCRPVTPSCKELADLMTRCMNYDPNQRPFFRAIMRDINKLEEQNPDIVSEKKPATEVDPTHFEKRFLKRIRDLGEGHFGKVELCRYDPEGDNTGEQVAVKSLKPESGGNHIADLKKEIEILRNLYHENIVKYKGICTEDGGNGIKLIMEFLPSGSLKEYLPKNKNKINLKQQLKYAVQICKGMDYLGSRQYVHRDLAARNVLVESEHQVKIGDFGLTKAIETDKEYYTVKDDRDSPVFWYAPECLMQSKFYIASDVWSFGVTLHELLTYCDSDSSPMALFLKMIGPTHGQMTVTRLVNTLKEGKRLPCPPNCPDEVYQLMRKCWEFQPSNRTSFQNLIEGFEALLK
- experiment_notes: Inhibition of JAK1/JAK3 in human M07E cells assessed as reduction of IL-15 stimulated STAT phosphorylation preincubated for 30 mins followed by IL-15 stimulation for 15 mins by flow cytometry method
- Format: cell-based
pIC50: −log10 of the molar value.

- mol: "NC(=O)c1cnc(Nc2cccc(O)n2)cc1Nc1ccccc1Cl"
  reading_qualifier: "<"
  pIC50: 5.00
- mol: "NC(=O)c1cnc(Nc2ccc(O)cn2)cc1Nc1ccccc1Cl"
  reading_qualifier: "="
  pIC50: 6.66
- mol: "CCOC(=O)Oc1cccc(Nc2cc(Nc3ccccc3Cl)c(C(N)=O)cn2)n1"
  reading_qualifier: "="
  pIC50: 6.94
- mol: "COc1cccc(Nc2cc(Nc3ccccc3Cl)c(C(N)=O)cn2)n1"
  reading_qualifier: "="
  pIC50: 6.77
